System: A-375
METHOD_NOTES: Antiproliferative activity against human A-375 cells assessed as inhibition of cell growth measured after 72 hrs by CCK8 assay
Type: functional, cell-based
MEASUREMENT_CONDITIONS: A-375, 72 h
READOUT_NAME: IC50 (µM)
Give just the numeric value; µM need not be written.

Consider the following illustrative entries.
Determine reported IC50 for Cn1c(=O)c2c(NC3CC3)c(Cc3ccccc3)c(=O)n(C)c2n(C)c1=O ; test system: A-375.
45.9

Report the value of IC50 obtained on A-375 for O=c1[nH]c2c(c(O)c1Cc1ccccc1)c(=O)n(-c1ccc(OC(F)(F)F)cc1)c(=O)n2-c1ccc(OC(F)(F)F)cc1 .
24.5

Others:
// output IC50; input CN1CCN(c2cc(NCC(=O)Nc3cccc(Cl)c3)c3c(=O)n(C)c(=O)n(C)c3n2)CC1 ; system A-375
5.2

Sourced from ChEMBL document CHEMBL5113479
